measure: melting point

Examples with answers:
Cc1nc(-c2ccc3ccc(Cn4c(C(C)C)nc5ccn(Cc6ccccc6-c6noc(C)n6)c(=O)c54)cc3c2)no1 [BC4]	149 to 150 °C
Cc1nc(-c2ccc3ccc(Cn4c(C(C)C)nc5ccn(Cc6ccccc6)c(=O)c54)cc3c2)no1 [BC5]	112 to 113 °C
Cc1nc(-c2ccc(Cn3ccc4nc(C(C)C)n(Cc5ccc6ccc(-c7noc(C)n7)cc6c5)c4c3=O)cc2)no1 [BC3]	172 to 173 °C

Please look up its melting point: Cc1nc(-c2ccc3ccc(Cn4ccc5nc(C(C)C)n(Cc6ccc7ccc(-c8noc(C)n8)cc7c6)c5c4=O)cc3c2)no1 [BC2]
201 to 202 °C

Source: patent US6492384B1
